Recorded values, source patent US20090298167A1.

For each of the binders below, state its IC50 (nM) in Murine IL-21R-BaF3 Neutralization Assay.
Molecular target: murine IL-21R expressed on cells (murine, UniProt Q9JHX3 20-529)
Sequence (Q9JHX3 20-529 limits assumed): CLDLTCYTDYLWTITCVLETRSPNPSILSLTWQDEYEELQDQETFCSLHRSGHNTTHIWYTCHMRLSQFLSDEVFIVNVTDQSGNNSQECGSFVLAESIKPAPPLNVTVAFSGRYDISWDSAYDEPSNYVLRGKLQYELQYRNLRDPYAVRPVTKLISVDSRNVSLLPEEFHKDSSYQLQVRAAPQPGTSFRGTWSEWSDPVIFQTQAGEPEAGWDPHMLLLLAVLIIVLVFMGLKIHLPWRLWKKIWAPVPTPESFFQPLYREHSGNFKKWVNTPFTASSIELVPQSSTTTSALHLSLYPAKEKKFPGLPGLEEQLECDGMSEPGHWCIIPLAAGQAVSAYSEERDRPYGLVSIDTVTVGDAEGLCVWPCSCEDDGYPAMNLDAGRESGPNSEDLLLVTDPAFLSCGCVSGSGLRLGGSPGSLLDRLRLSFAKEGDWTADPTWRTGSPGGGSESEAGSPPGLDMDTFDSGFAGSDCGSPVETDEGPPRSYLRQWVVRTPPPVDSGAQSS
Test: cell-based or functional assay
One number for each entry, in nM.

| Binder | Value observed |
| --- | --- |
| scFv L17 (scFv) scFv: QVQLQESGPGLVKTSETLSLTCAVSGYSISSGYYWGWIRQPPGKGLEWIGSISHTGNTYYNPPLKSRVTISVDTSKNQFSLKLSSVTAADTAVYYCARGGGISRPEYWGKGTLVTVSSGGGGSGGGGSGGGGSALSSELTQDPPVSVALGQTVTLTCQGDSLRTYYASWYQQKSGQAPILLLYGKHKRPSGIPDRFSGSTSGDTASLTITGAQAEDEADYYCSTRSRKGNPHVLFGGGTQLTVL | 2.66 |

Let us move to another entry and its IC50 (nM) in Murine IL-21R-BaF3 Neutralization Assay.
Summary for this binder, scFv L13 (scFv) scFv: QVQLQESGPGLVKTSETLSLTCAVSGYSISSGYYWGWIRQPPGKGLEWIGSISHTGNTYYNPPLKSRVTISVDTSKNQFSLKLSSVTAADTAVYYCARGGGISRPEYWGKGTLVTVSSGGGGSGGGGSGGGGSALSSELTQDPPVSVALGQTVTLTCQGDSLRTYYASWYQQKSGQAPILLLYGKHKRPSGIPDRFSGSTSGDTASLTITGAQAEDEADYYCVTRNRYGNPHVLFGGGTQLTVL : IC50 (nM) in Murine IL-21R-BaF3 Neutralization Assay is 1.25
